A collection of compounds and their measured IC50
# assay-notes: SOD activity, indirect cytochrome C (CytC) assay, xanthine/xanthine oxidase
# Format: biochemical
# measurement-conditions: CytC assay; [CytC] = 10 μM, [xanthine] = 40 μM, [xanthine oxidase] = 0.0053 U/mL, phosphate buffer 50 mM, pH = 7.8
Report the value in nM with no unit label.

Known IC50 results, listed for orientation:
COc1cccc(CN(Cc2ccccn2)Cc2ccccn2)c1O.[Cu+2].[O-][Cl+3]([O-])([O-])[O-].[O-][Cl+3]([O-])([O-])[O-] ... 1040
COc1cccc(CN(Cc2ccccn2)Cc2ccccn2)c1[O-].COc1cccc(CN(Cc2ccccn2)Cc2ccccn2)c1[O-].[Cu+2].[Cu+2].[O-][Cl+3]([O-])([O-])[O-].[O-][Cl+3]([O-])([O-])[O-] ... 1280

Continue with the compound presented below.
Q: For the compound Oc1ccccc1CN(Cc1ccccn1)Cc1ccccn1.[Cu+2].[O-][Cl+3]([O-])([O-])[O-].[O-][Cl+3]([O-])([O-])[O-] , what IC50 is on record?
Ans: 1410
